System under test: Coagulation factor X (Homo sapiens, UniProt P00742)
Sequence (P00742 41-179 limits assumed): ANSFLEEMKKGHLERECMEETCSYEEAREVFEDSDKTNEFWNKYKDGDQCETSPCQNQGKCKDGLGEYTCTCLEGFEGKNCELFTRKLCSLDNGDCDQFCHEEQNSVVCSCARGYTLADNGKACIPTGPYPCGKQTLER
Sequence (P00742 235-488 limits assumed): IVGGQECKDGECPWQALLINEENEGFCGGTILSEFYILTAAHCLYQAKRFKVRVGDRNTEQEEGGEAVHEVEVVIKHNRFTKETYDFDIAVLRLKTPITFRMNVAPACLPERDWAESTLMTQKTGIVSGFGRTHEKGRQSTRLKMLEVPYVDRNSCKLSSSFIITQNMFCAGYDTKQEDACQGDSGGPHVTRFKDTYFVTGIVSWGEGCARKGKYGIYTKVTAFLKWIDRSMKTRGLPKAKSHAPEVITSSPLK
Test description: Inhibition of purified human factor 10a using Suc-Ile-Glu(yPip)-GlyArg-pNa-HCl as substrate at 100 uM measured for 5 mins by spectrophotometric assay
inhibition values for the compounds below.

{"Compound": "N=C(N)Nc1ccc(CNc2cnc3cc(C(=O)NC4CC4)ccn23)cc1", "Unit of measure": "%", "inhibition": 45.4}
{"Compound": "N=C(N)Nc1ccc(CNc2cnc3cc(C(=O)NCc4ccc(F)cc4)ccn23)cc1", "Unit of measure": "%", "inhibition": 45.7}
{"Compound": "N=C(N)Nc1ccc(CNc2c(-c3cccnc3)nc3ccccn23)cc1", "Unit of measure": "%", "inhibition": 24.6}
{"Compound": "N=C(N)Nc1ccccc1", "Unit of measure": "%", "inhibition": 0}
{"Compound": "N=C(N)NC(=O)c1nc(Cl)c(N)nc1N [AMILORIDE]", "Unit of measure": "%", "inhibition": 3.5}
{"Compound": "N=C(N)Nc1ccc(CNc2cnc3cc(C(=O)NC4CCCC4)ccn23)cc1", "Unit of measure": "%", "inhibition": 47.8}
{"Compound": "CN1CCN(CCNC(=O)c2ccn3c(NCc4ccc(NC(=N)N)cc4)cnc3c2)CC1", "Unit of measure": "%", "inhibition": 12.2}
{"Compound": "CCCCNC(=O)c1ccn2c(NCc3ccc(NC(=N)N)cc3)cnc2c1", "Unit of measure": "%", "inhibition": 41.8}
{"Compound": "N=C(N)Nc1ccc(CNc2cnc3ccccn23)cc1", "Unit of measure": "%", "inhibition": 42}

----------
Test description: Inhibition of bovine pancreatic trypsin using Nalpha-benzoyl-D,L-Arg-pNA-HCl as substrate measured for 5 mins by spectrophotometric assay
Set-up: species or system Bos taurus
pIC50: −log10 of the molar value.
pIC50 values for the compounds below.
Property label: pIC50

{"Compound": "CCCCNC(=O)c1ccn2c(NCc3ccc(NC(=N)N)cc3)cnc2c1", "Property label": "pIC50", "Censoring operator": "<", "Assay value": 4.00}
{"Compound": "N=C(N)NC(=O)c1nc(Cl)c(N)nc1N [AMILORIDE]", "Property label": "pIC50", "Censoring operator": "=", "Assay value": 4.50}
{"Compound": "CCOC(=O)c1ccc(OC(=O)CCCCCNC(=N)N)cc1 [GABEXATE]", "Property label": "pIC50", "Censoring operator": "=", "Assay value": 5.15}
{"Compound": "N=C(N)Nc1ccc(CNc2cnc3ccccn23)cc1", "Property label": "pIC50", "Censoring operator": "=", "Assay value": 3.94}
{"Compound": "N=C(N)c1ccc(/C=C2/N=C(c3ccccc3)OC2=O)cc1", "Property label": "pIC50", "Censoring operator": "=", "Assay value": 5.50}

----------
System under test: Tissue-type plasminogen activator (Homo sapiens, UniProt P00750)
Sequence (P00750 36-562 limits assumed): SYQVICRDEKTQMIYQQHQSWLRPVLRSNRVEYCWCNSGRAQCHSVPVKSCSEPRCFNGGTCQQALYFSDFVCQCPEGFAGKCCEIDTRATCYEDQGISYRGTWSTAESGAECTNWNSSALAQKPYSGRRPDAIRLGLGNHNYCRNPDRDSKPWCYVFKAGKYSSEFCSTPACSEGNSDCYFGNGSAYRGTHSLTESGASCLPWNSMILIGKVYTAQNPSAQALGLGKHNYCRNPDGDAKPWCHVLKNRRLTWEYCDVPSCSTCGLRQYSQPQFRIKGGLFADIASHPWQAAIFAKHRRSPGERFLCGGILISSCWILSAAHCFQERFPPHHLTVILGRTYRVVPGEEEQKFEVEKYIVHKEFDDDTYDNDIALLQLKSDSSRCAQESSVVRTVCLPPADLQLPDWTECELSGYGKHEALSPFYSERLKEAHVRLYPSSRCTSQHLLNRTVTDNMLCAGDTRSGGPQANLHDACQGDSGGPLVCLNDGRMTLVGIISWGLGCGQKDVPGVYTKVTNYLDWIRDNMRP
Test description: Inhibition of recombinant human tPA using H-D-Ile-Pro-L-Arg-pNA-2HCl as substrate at 100 uM measured for 5 mins by spectrophotometric assay

{"Compound": "N=C(N)Nc1ccc(CNc2cnc3cc(C(=O)NC4CCCC4)ccn23)cc1", "Unit of measure": "%", "inhibition": 11.2}
{"Compound": "N=C(N)Nc1ccccc1", "Unit of measure": "%", "inhibition": 0}
{"Compound": "N=C(N)Nc1ccc(CNc2c(-c3cccnc3)nc3ccccn23)cc1", "Unit of measure": "%", "inhibition": 9.4}
{"Compound": "N=C(N)Nc1ccc(CNc2cnc3cc(C(=O)NCc4ccc(F)cc4)ccn23)cc1", "Unit of measure": "%", "inhibition": 11.9}
{"Compound": "N=C(N)Nc1ccc(CNc2cnc3cc(C(=O)NC4CC4)ccn23)cc1", "Unit of measure": "%", "inhibition": 0}
{"Compound": "CCCCNC(=O)c1ccn2c(NCc3ccc(NC(=N)N)cc3)cnc2c1", "Unit of measure": "%", "inhibition": 8}
{"Compound": "CN1CCN(CCNC(=O)c2ccn3c(NCc4ccc(NC(=N)N)cc4)cnc3c2)CC1", "Unit of measure": "%", "inhibition": 2.8}
{"Compound": "N=C(N)NC(=O)c1nc(Cl)c(N)nc1N [AMILORIDE]", "Unit of measure": "%", "inhibition": 1}
{"Compound": "N=C(N)Nc1ccc(CNc2cnc3ccccn23)cc1", "Unit of measure": "%", "inhibition": 33.6}
{"Compound": "N=C(N)Nc1ccc(CNc2cnc3cc(C(=O)NCCO)ccn23)cc1", "Unit of measure": "%", "inhibition": 0}
